The values you see were collected from PubChem BioAssay (NCI).

System: NCI-H460 lung
Assay: NCI tumour cell line growth inhibition, 48 h
*1 amine or outer side, *2 acyl side, *3 side chain or, on linkers, in order; H or OH if unused. Where a SMILES comes first, the peptide text is derived from it. [ ]: non-standard residue; d: D form. X33 = C=CCC(O[*:1])C(=O)[*:2]; NMeV = CN[CH](C(=O)O)C(C)C; NMeA = CN[CH](C)C(=O)O; βAla = NCCC(=O)O
QUANTITY: TGI

Give NCI-H460 lung TGI for `CCOP(=O)(CN=C(c1ccccc1)c1ccccc1)OCC`
> 100 µM

Likewise for COC(=O)C1=C(OC(=O)c2ccc(Cl)cc2)C(C(=O)OC)[C@@]2(O)[C@@H](C(=O)OC)C(c3ccccc3Cl)C[C@@H]1[C@@H]2C(=O)OC (stereo partly specified) ?
> 100 µM

c1ccc(C2OCC(OC3CCCCO3)CO2)cc1 (stereo unspecified) ?
> 100 µM

Also Cc1ccc(S(=O)(=O)NNC2(NS(=O)(=O)c3ccc(Cl)cc3)C(Cl)=C(Cl)C(=O)c3ccccc32)cc1 (stereo unspecified) , if possible.
38.1 µM

What about `C[C@]12CCc3sc(Nc4ccc(O)cc4)nc3C1=CC[C@@H]1[C@@H]2CC[C@]2(C)C(=O)CC[C@@H]12` ?
10.5 µM

Same for COc1ccc(/C=C2\CCC(CN(C)C)C2=O)cc1OC (stereo unspecified)
26.6 µM

Another molecule to check: CCOc1ccc(NCC2CC/C(=C\c3ccc(O)cc3)C2=O)cc1 (stereo unspecified)
54.2 µM

Further, for `COc1ccc(C(=O)N(C(=S)OCCOc2ccccc2)c2ccccc2)cc1` ?
> 100 µM

One more molecule: `Cc1[nH]c2ccccc2c1CCNCc1ccc(/C=C/C(=O)NO)cc1`
0.838 µM

Thanks! And C=CCC1OC(=O)CCNC(=O)C(C)N(C)C(=O)C(C(C)C)N(C)C(=O)C(C(C)CC)NC(=O)C2CCCN2C1=O (stereo unspecified) (cyclo([X33]PI[NMeV][NMeA][βAla]); configuration not given here) ?
> 100 µM

Field entry: `O=C1CCCCC/C1=C\c1ccc(Cl)cc1`
> 100 µM

Ok, now `O=C(/C=C/c1ccc(Cl)cc1)c1cccs1`
35.4 µM

What do you have for `COC(=O)c1cc(-c2cccn2C)c2c(c1C(=O)OC)c1ccccc1n2C` ?
> 100 µM

Check `CS/C(=N\c1nccs1)NC(=O)c1cccc(Cl)c1` too.
> 100 µM

Same for `O=C1/C(=C/c2ccccc2)CCC/C1=C\c1ccc(O)c(CN2CCCCC2)c1`
16.5 µM

// repeat for `Cc1ccc2c(C)c3ccc4ccccc4c3c[n+]2c1` and report
35.2 µM

Query CCOC(=O)C1(C/C=C\CBr)CCCCCCCCCCC1=O (stereo unspecified) next
33 µM

Please give the result for C/C=C/C=C/CCCCCCCCCCCCCC1(OC)C=CC(CC(=O)OC)OO1 (stereo unspecified) too.
29.4 µM

Next: OCC1OC(n2cnc3c(=S)nc[nH]c32)C(O)C1O (stereo unspecified)
> 2500 µM

Let us now turn to O=C(NN1C(=O)CSC1c1ccc(C(F)(F)F)cc1)c1ccncc1 (stereo unspecified)
> 100 µM

And the next one, `Cn1cnc(N2CCCC2)c(C#N)c1=O` ?
> 100 µM

---

System: MCF7 breast
Assay: NCI tumour cell line growth inhibition, 48 h
Please go through the items and note down their TGI.
Dear colleague, please return just the value in µM, with no unit written.

Entry under review: `O=C(CN(/C=C/C(=O)C(F)(F)F)c1ccccc1)c1ccc(Cl)c(Cl)c1` . Reported TGI?
55.3

`O=C(CCCSc1nc(-c2ccccc2)cc(-c2ccc(Cl)cc2)n1)NO` ?
12.4

Let us now turn to COc1cc2c3c(n(C)c(=O)c2cc1OC)-c1cc2c(cc1/C3=C\C(N)CN)OCO2 (stereo not drawn)
7

Try this compound next: CCOC(=O)C1(C/C=C\CBr)CCCCCCCCCCC1=O (stereo not drawn)
42.3

// next record `O=C(/C=C/c1ccc(Cl)cc1)c1cccs1`
15.8

Then `Oc1ccc(/C=C/c2ccc3cccc(O)c3n2)cc1O` ?
93.7

Cool, now `CC(C)/C(Cl)=N\OC(=O)Nc1ccc(F)cc1F`
13.4

Please answer likewise for `COc1cc(C(=O)/C=C/c2cccnc2Nc2ccccc2)cc(OC)c1OC`
1.64

Now give it for `CC(=O)O[C@H]1CC[C@@]2(C)[C@@H](CC[C@@H]3[C@@H]2CC[C@]2(C)C=C(C=O)C[C@@H]32)C1` too.
10.8

Entry Nc1nc(N)c2[nH]cnc2n1 (tested in a mixture with another compound) please
21.7

And for COC(=O)C1(Cc2ccc3c(c2)CCC3)Cc2ccc3c(c2C1)CCC3 (stereo not drawn) ?
31.4

---

System: SNB-75 CNS
Assay: NCI tumour cell line growth inhibition, 48 h; in the data active = GI50 below about 0.43 µM; inactive = the rest
Allowed answers: active, inactive

Record lookup: outcome of this test for `CSc1ccccc1C#Cc1ccccc1C#CCCCCO` ?
inactive

Same for `CCN(CC)c1ccc(C(=N)c2ccc(N(C)C)cc2)cc1`
inactive

Moving on to the next molecule: `COc1ccc(-c2nn(-c3cccc(Cl)c3)cc2-c2cc(-c3ccccc3)nc(N)n2)cc1`
inactive

Same again, this time with `CC(C)N1C(NNC(=O)c2cnccn2)=NS(=O)(=O)c2ccccc21`
inactive

Now consider `FC(F)(F)c1ccc(-c2cnc(Cl)nc2NCc2cc(C(F)(F)F)cc(C(F)(F)F)c2)cc1` and answer again.
inactive

Cool, now CN(C)CC1CCCCCC(CN(C)C)C1=O (centres undefined)
inactive

Ok, now `CCCc1cc(=O)n2c(C(=O)Nc3ccccc3OC)c(C(=O)Nc3ccc(F)cc3)sc2n1`
inactive

Follow-up item: `CS(=O)(=O)Nc1ccc(N=Cc2c(O)[nH]c3ccccc23)cc1`
inactive

Do the same for COc1cc(C2CC(c3ccc(N(C)C)cc3)=NN2C(C)=O)cc(OC)c1OC (centres undefined) please
inactive

Please give the result for `O=C(c1cccnc1)c1cc(-c2ccccn2)c(=O)n2ccccc12` too.
inactive

Same for COc1ccc2c(c1)C(C)Cc1c(Cl)nc(C)nc1N2C (centres undefined)
inactive

Check `Cn1cc(-c2ccc(-c3cn(C)c4ccc(Cl)cc34)s2)c2cc(Cl)ccc21` too.
inactive

Do the same for `COc1cc(C(=O)/C=C/c2cccnc2Nc2ccccc2)cc(OC)c1OC` please
inactive

Repeat with `CC(=O)O[C@H]1CC[C@@]2(C)[C@@H](CC[C@@H]3[C@@H]2CC[C@]2(C)C=C(C=O)C[C@@H]32)C1`
inactive

Cool, now COC(=O)C1=C(OC(=O)c2ccc(Cl)cc2)C(C(=O)OC)[C@@]2(O)[C@@H](C(=O)OC)C(c3ccccc3Cl)C[C@@H]1[C@@H]2C(=O)OC (some centres undefined)
inactive

And `O=C(OCCBr)c1ccc(Cl)c([N+](=O)[O-])c1` ?
inactive

Same read-out for CCN1C(=O)N(CC)C2C1NN=c1s/c(=C\c3cc4ccccc4[nH]3)c(=O)n12 (centres undefined) ?
active

What about this molecule? `CCNCCNc1cc(C2CCCCC2)c(C#N)c2nc3ccccc3n12`
inactive

Record: `CCOC(=O)c1nc(Nc2ccc(Cl)cc2)c2ccccc2n1`
inactive

---

System: HS 578T breast
Assay: NCI tumour cell line growth inhibition, 48 h
What TGI was measured for each of the following?
Write the answer as a number in µM, unit excluded.

Quick check: TGI of `O=C1/C(=C/c2ccccc2)CCC/C1=C\c1ccc(O)c(CN2CCCCC2)c1` ?
15.1

# iterate: CCN1C(=O)N(CC)C2C1NN=c1s/c(=C\c3cc4ccccc4[nH]3)c(=O)n12 (stereo not drawn)
9.1

What do you have for `O=C1C(=C(I)I)c2ccccc2-c2ccccc21` ?
19.6

Can you check `COC(=O)C1=C(C)NC(C)=C(C(=O)OC)C1c1cccc(NO)c1` next?
64.4

Now try `CCOc1ccccc1/C=N\N=C(\N)N/N=C/c1ccccc1OCC` .
7.26

Subsequent entry: `CC(=O)O[C@H]1CC[C@@]2(C)[C@@H](CC[C@@H]3[C@@H]2CC[C@]2(C)C=C(C=O)C[C@@H]32)C1`
50.1

# iterate: Cc1ccc(S(=O)(=O)n2c3c(c4ccccc42)CCN2CCC(Br)C[C@@H]32)cc1 (stereo partly drawn)
28.5

Also, Nc1ncnc2c1cnn2Cc1cn(COCC(O)CO)nn1 (stereo not drawn) please.
32.8

Try this compound next: `COc1ccc(-c2c3c(nc4nc(SC)nc(SC)c24)CCCC3)cc1OC`
86.3

How about CCOc1ccc(NCC2CC/C(=C\c3ccc(O)cc3)C2=O)cc1 (stereo not drawn) ?
73.7

Next up: CCCCNC(=O)NS(=O)(=O)c1ccc(N2N=C(c3cc(C)ccc3C)CC2c2cc(OC)c(OC)c(OC)c2)cc1 (stereo not drawn)
5.78

Same thing, different compound: `Cc1cn2c(/C=N/Nc3ccccn3)c(-c3ccc(Cl)c([N+](=O)[O-])c3)nc2s1`
39.4

// next record NC(=S)N/N=C1\c2ccccc2CCC1CCC1(O)CCc2ccccc2C1=O (stereo not drawn)
63

Same question, `CN(CCCN(C)CCc1ccc(Cl)c(Cl)c1)CCCN1CCCC1` this time
4.31

Here is the next compound: `Cc1[nH]c2ccccc2c1CCNCc1ccc(/C=C/C(=O)NO)cc1`
0.0554

One more compound: `O=C(/C=C/c1ccccc1)CSc1nc2ccc(I)cc2c(=O)n1Cc1ccccc1`
67.7
